Reported values of melting point for individual entries
The response must be a number in °C with no trailing unit.

# count of solved cases: 4
{"Smiles code": "CC(C)CCn1ccc(-c2ccc(OCc3cccc(C#N)c3)cc2)c(C#N)c1=O", "melting point / °C": 154}
{"Smiles code": "N#Cc1c(N2CCC(N(Cc3cccc(C(F)(F)F)c3)C3CC3)CC2)ccn(Cc2ccc(F)cc2)c1=O", "melting point / °C": 96}
{"Smiles code": "CC(C)CCn1ccc(-c2ccc(OCc3ccncc3)cc2F)c(C#N)c1=O", "melting point / °C": 156}
{"Smiles code": "CC(C)CCn1ccc(-c2ccc(OCc3ccccn3)cc2)c(C#N)c1=O", "melting point / °C": 162}

Could you now look at the following compound, please?
Form field melting point, entry CCCCn1ccc(-c2ccc(OC(F)(F)F)cc2)c(C#N)c1=O : 123

----------
Entries and their measured EC50 follow.
Target or system: human mGluR2 receptor (Homo sapiens, UniProt Q14416)
Construct: expressed in transfected cells; host or cells: CHO cells (membrane preparation)
Sequence (Q14416 19-872): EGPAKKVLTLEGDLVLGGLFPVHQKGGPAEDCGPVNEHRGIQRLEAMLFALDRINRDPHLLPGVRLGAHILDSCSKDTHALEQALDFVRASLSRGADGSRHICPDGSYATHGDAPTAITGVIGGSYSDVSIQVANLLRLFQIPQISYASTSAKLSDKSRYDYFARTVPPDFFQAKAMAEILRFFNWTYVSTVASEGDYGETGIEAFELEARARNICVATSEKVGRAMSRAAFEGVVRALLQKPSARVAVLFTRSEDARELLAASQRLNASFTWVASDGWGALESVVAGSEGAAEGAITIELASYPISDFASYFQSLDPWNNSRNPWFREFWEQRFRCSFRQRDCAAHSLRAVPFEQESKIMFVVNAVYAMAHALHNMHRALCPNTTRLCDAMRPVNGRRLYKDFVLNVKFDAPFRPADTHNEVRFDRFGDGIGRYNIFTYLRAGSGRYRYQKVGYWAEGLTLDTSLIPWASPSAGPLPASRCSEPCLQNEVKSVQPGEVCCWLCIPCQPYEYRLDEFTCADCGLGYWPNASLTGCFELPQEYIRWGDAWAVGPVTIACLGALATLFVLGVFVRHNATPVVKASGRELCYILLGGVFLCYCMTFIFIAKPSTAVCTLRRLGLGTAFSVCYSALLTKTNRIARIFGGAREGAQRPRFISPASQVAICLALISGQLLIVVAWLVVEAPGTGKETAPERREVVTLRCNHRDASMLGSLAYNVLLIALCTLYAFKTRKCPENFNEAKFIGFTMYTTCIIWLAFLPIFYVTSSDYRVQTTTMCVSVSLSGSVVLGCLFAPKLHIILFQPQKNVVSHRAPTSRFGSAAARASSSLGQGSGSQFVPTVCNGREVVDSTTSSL
Method summary: [35S]GTPγS binding assay (GTPγS-PAM): positive allosteric modulation in presence of glutamate at EC25, membranes from transfected CHO cells
Type: biochemical
Applied conditions: in presence of mGluR2 agonist glutamate at predetermined EC25 concentration, averages of duplicate values of 11-concentration response curves, read-out: GTPgS - hR2 PAM pEC50 (converted)
Units required after the number.

{"Compound": "CC1COCC(C)N1Cc1ccc(-c2ccn(Cc3ccc(OC(F)(F)F)cc3)c(=O)c2C#N)cc1 (stereo not drawn)", "Quantity name": "EC50", "Observed result": "631 nM"}
{"Compound": "CC(C)CCn1ccc(-c2ccc(OCc3ccccc3)c(Cl)c2)c(C#N)c1=O", "Quantity name": "EC50", "Observed result": "79.4 nM"}
{"Compound": "CN(Cc1cccc(F)c1)C1CCN(c2ccn(Cc3ccc(F)cc3)c(=O)c2C#N)CC1", "Quantity name": "EC50", "Observed result": "1000 nM"}
{"Compound": "COc1ccc(CCc2ccn(CCC(C)C)c(=O)c2C#N)cc1", "Quantity name": "EC50", "Observed result": "1260 nM"}
{"Compound": "CCCCn1ccc(N2CCC(CCOc3cccnc3)CC2)c(C#N)c1=O", "Quantity name": "EC50", "Observed result": "1580 nM"}
{"Compound": "CN(Cc1cccc(C(F)(F)F)c1)C1CCN(c2ccn(CCOc3ccccc3)c(=O)c2C#N)CC1", "Quantity name": "EC50", "Observed result": "31.6 nM"}

Briefly, EC50 measured for CCCCn1ccc(N2CCN(Cc3ccc(OC(F)(F)F)c(Cl)c3)CC2)c(C#N)c1=O : 316 nM

Summary for this compound, Cc1ccc(N2CCN(c3ccn(CCC(C)C)c(=O)c3C#N)CC2)nc1 : EC50 is 794 nM

Documented EC50 of CC(C)CCn1ccc(-c2ccc(C(=O)N3CCN(Cc4ccc(OC(F)(F)F)c(Cl)c4)CC3)cc2)c(C#N)c1=O : 398 nM

----------
Target or system: human mGluR2 receptor (Homo sapiens, UniProt Q14416)
Construct: expressed in transfected cells; host or cells: CHO cells (membrane preparation)
Method summary: [35S]GTPγS binding assay (GTPγS-PAM): positive allosteric modulation in presence of glutamate at EC25, membranes from transfected CHO cells
Type: biochemical
Applied conditions: in presence of mGluR2 agonist glutamate at predetermined EC25 concentration, averages of duplicate values of 11-concentration response curves, read-out: GTPgS - hR2 PAM pEC50 (converted)
Protocol: The compounds provided in the present invention are positive allosteric modulators of mGluR2. These compounds appear to potentiate glutamate responses by binding to an allosteric site other than the glutamate binding site. […] The [^35S]GTPγS binding is a functional membrane-based assay used to study G-protein coupled receptor (GPCR) function whereby incorporation of a non-hydrolysable form of GTP, [^35S]GTPγS (guanosine 5′-triphosphate, labelled with gamma-emitting ^35S), is measured. […]
Below is a list of entries, each paired with its recorded EC50 value.
Write the number in nM without appending the unit.

Examples from the recorded data:
{"Compound": "CC(C)CCn1ccc(-c2ccc(N3CCCC3)cc2)c(C#N)c1=O [1-218]", "Target or system": "human mGluR2 receptor (Homo sapiens, UniProt Q14416)", "EC50 / nM": 200}
{"Compound": "CCCCn1ccc(N2CCN(Cc3ccc(OCC4CC4)c(Cl)c3)CC2)c(C#N)c1=O [2-003]", "Target or system": "human mGluR2 receptor (Homo sapiens, UniProt Q14416)", "EC50 / nM": 158}
{"Compound": "CCCCn1ccc(-c2ccc(Cn3ccnc3C)cc2)c(C#N)c1=O [1-060]", "Target or system": "human mGluR2 receptor (Homo sapiens, UniProt Q14416)", "EC50 / nM": 1000}

Entry CC(C)CCn1ccc(-c2ccc(OCc3ccncc3)c(Cl)c2)c(C#N)c1=O [1-165] ; EC50 = 79.4

For record CC(C)CCn1ccc(-c2ccc(COc3ccncc3)cc2)c(C#N)c1=O [1-160] the listed EC50 is 631

Entry N#Cc1c(-c2ccc(CN3CCOCC3)cc2)ccn(Cc2ccc(OC(F)(F)F)cc2)c1=O [1-033] ; EC50 = 2510

response.value for CC(C)CCn1ccc(-c2ccc(N3CCN(c4ccncc4)CC3)cc2)c(C#N)c1=O [1-234] (field: EC50) = 1260

Query CC(C)CCn1ccc(N2CCc3c([nH]c4ccccc34)C2)c(C#N)c1=O [5-039] yields EC50 of 79.4

----------
Target or system: human mGluR2 receptor (Homo sapiens)
Construct: expressed in transfected cells; host or cells: CHO cells (membrane preparation)
Method summary: [35S]GTPγS binding assay (GTPγS-PAM): positive allosteric modulation in presence of glutamate at EC25, membranes from transfected CHO cells
Type: biochemical
Applied conditions: in presence of mGluR2 agonist glutamate at predetermined EC25 concentration, averages of duplicate values of 11-concentration response curves, read-out: GTPgS - hR2 PAM pEC50 (converted)
Quantity name: EC50 (nM)
# number only, unit nM dropped from output

{"Compound": "N#Cc1c(N2CCN(Cc3cccc(F)c3)CC2)ccn(Cc2ccc(F)cc2)c1=O [2-050]", "Observed result": 2510}
{"Compound": "CC(C)CCn1ccc(-c2ccco2)c(C#N)c1=O [1-081]", "Observed result": 6310}
{"Compound": "COc1cc(-c2ccn(CCC(C)C)c(=O)c2C#N)ccc1OCc1ccncc1 [1-167]", "Observed result": 501}
{"Compound": "CCCCn1ccc(-c2ccc(Oc3ccc(C#N)cn3)cc2)c(C#N)c1=O [1-072]", "Observed result": 1580}
{"Compound": "CC(C)CCn1ccc(N2CC(OCc3ccc(OC(F)(F)F)cc3)C2)c(C#N)c1=O [5-008]", "Observed result": 251}

Note to self: EC50 recorded for CC(=O)CCOc1ccc(-c2ccn(CCC(C)C)c(=O)c2C#N)cc1 [1-126] was 631

Form: compound = C[C@@H]1CN(c2ccn(CC3CC3)c(=O)c2C#N)C[C@H](C)N1c1ncccn1 [2-041] ; EC50 = 3160

// recorded EC50 for CC(C)CCn1ccc(-c2ccc(Nc3ccncc3)cc2)c(C#N)c1=O [1-208] : 1260

Recorded EC50 (compound CC(=O)Nc1ccc(-c2ccn(CCC(C)C)c(=O)c2C#N)cc1 [1-176] ): 5010

EC50 for CC(C)CCn1ccc(-c2ccc(OCC(F)(F)F)c(Cl)c2)c(C#N)c1=O [1-123] is 158

Record summary for CC(C)CCn1ccc(N2CCc3c(oc4ccccc34)C2)c(C#N)c1=O [5-041] : reported EC50 = 50.1

----------
Items are presented alongside their recorded melting point.
Use °C as the unit, but write only the number.

# count of solved cases: 7
{"Molecule": "N#Cc1c(N2CCC(N(Cc3cccc(F)c3)C3CC3)CC2)ccn(Cc2ccc(F)cc2)c1=O [4-059]", "Observed result": 157}
{"Molecule": "CC(C)CCn1ccc(N2CCC(N(C)Cc3ccc(F)cc3)CC2)c(C#N)c1=O [4-027]", "Observed result": 113}
{"Molecule": "N#Cc1c(-c2ccccc2)ccn(Cc2ccc(-c3ccccc3)cc2)c1=O [1-042]", "Observed result": 185}
{"Molecule": "CC(C)CCn1ccc(-c2ccc(NCc3cccc(C#N)c3)cc2)c(C#N)c1=O [1-204]", "Observed result": 157}
{"Molecule": "CCCCn1ccc(N2CCN(Cc3ccc(OC(F)(F)F)c(Cl)c3)CC2)c(C#N)c1=O [2-002]", "Observed result": 127}
{"Molecule": "COc1ccc(Oc2ccn(CCC(C)C)c(=O)c2C#N)cc1 [1-282]", "Observed result": 153}
{"Molecule": "CCC(C)Oc1ccc(-c2ccn(CCC(C)C)c(=O)c2C#N)cc1F (centres unmarked) [1-115]", "Observed result": 154}

Now for the molecule whose melting point we want.
Form field melting point, entry COc1ccc(-c2ccn(CCC(C)C)c(=O)c2C#N)cc1Cl [1-112] : 149
